- target_or_system: L38Q
- method: SPR; 25 C
pKd: −log10 of the molar value.
property_name: pKd

{"binder": "GDF11 (ligand) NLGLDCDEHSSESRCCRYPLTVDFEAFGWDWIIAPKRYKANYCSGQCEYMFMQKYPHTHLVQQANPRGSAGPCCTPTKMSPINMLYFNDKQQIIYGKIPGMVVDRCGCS", "value_measured": 10.68}

(P) BMP9 (ligand) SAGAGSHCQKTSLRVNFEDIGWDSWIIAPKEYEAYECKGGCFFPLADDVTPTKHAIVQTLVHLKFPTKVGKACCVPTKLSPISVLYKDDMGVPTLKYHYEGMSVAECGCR
(Q) Activin A (ligand) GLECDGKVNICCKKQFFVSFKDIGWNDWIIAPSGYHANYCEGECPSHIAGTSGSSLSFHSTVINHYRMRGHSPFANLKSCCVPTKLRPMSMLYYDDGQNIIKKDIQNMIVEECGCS
(R) BMP10 (ligand) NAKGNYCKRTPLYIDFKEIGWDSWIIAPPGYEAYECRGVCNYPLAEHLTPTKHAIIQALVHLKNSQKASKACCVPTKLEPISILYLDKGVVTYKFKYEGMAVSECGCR
Ascending by pKd, please. Sort and list the labels as requested.
Q, R, P
(Q: 9.70, R: 10.05, P: 10.48)
